Tested on: HGGX6 (H3.3 G34R paediatric high-grade glioma line)
ASSAY PROCEDURE: maximal growth inhibition (yFin) relative to DMSO / staurosporine; higher = more efficacious
MEASURED ATTRIBUTE: maximal growth inhibition (%)
Numbers only here, please. The scale is %.

| MOLECULE | STUDY TARGET | UNITS SYMBOL | maximal growth inhibition |
| --- | --- | --- | --- |
| CCN(CC)CCCC(C)Nc1c2ccc(Cl)cc2nc2ccc(OC)cc12 (stereo not given) | HGGX6 | % | 74.3 |
| Nc1nc2n[nH]nc2c(=O)[nH]1 | HGGX6 | % | 25.9 |
| Cc1ccc2nc(NCCN)c3ncc(C)n3c2c1 | HGGX6 | % | 81.8 |

Exam item: Given the entry "Cc1[nH]c2ccccc2c1CCNCc1ccc(/C=C/C(=O)NO)cc1" , report its measured maximal growth inhibition.
Marked response: 73.9

Exam item: Given the entry Clc1ccc(CSC(Cn2ccnc2)c2ccc(Cl)cc2Cl)cc1 (stereo not given) , report its measured maximal growth inhibition.
Marked response: 44.1
